Form field: EC50 (one value per entry).
Molecular target: T1, Human recombinant CD5L protein (Sino Biological, Catalog Number 10791-H08H) (human, UniProt O43866 20-347)
T1 construct: Bought protein; also called human CD5L; CD5L-His; not shown: 6xHIS-tag
T1 sequence (looked up): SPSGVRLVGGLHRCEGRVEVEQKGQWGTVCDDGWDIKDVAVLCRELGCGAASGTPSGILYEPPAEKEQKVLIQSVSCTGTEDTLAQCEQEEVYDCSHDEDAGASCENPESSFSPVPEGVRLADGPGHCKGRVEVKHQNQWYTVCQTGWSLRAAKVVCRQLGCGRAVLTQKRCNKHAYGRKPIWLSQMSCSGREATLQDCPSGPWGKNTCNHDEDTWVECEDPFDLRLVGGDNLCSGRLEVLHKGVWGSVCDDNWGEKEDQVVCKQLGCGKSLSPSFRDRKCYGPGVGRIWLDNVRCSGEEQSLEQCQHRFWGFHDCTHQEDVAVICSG
Experiment: titration ELISA, human CD5L coated on plate
Protocol: FIG. 11. […] Bound antibody was detected using a secondary antibody against rabbit IgG conjugated with HRP and TMB substrate for detection of A450 nm. EC₅₀ was estimated using GraphPad software by applying a 4-parameter fitting to calculate binding affinity of the antibodies. Binding constants (EC₅₀) of a panel of monoclonal antibodies were estimated by titration ELISA, and the data were analyzed using the 4-parameter curve fitting with GraphPad Prism program (Table 6).
Write the value in µg/mL as a bare number.

Example entries begin here.
| Binder | EC50 (µg/mL) |
| --- | --- |
| R-51 (antibody, V domains shown) VH: QSVKESGGRLVTPGTPLTLTCTVSTIDVSKYAVIWVRQAPGKGLEYIGIISSSGSTYYASWAKGRFTISKTSSTTVDLKMTSPTAEDTATYFCARGGNGVAFKLWGQGTLVTISS VL: ELDLTQTPASVEAAVGGTVTINCQASQSIYSSLAWYQQKPGQPPKLLIYETSKVESGVPSRFSGSGSGTQFTLTISDLECADAATYYCQSHDYISSSGMPFGGGTELEIL | 0.0144 |
| R-5 (antibody, V domains shown) VH: QSVKESGGRLVTPGTPLTLTCTVSGFSLSSYAMSWVRQAPGKGLEWIGVIDVTGRTYYASWAKGRFTISKTSTTVDLKITSPTTEDTATYFCGRDSYLDYGDPNGLDPWGPGTLVTISS VL: ELVMTQTPASVEAAVGGTVTIKCQASQSIGSNLAWYQQKPGQPPKLLIYTASNLAPGVSSRFKGSRSGTESTLIISDLECADAATYYCQCTYYGTSYMELGAFGGGTELEIK | 0.148 |

For record R-49 (antibody, V domains shown) VH: QSVKESGGRLVTPGTPLTLTCTVSGFSLSINAINWVRQAPGKGLEWIGIITNIGNTYYASWAKGRFTISRTSTTVDLTMTSLTTEDTATYFCARNSYFDPWGPGTLVTISS VL: ELVLTQTPSPVSAAVGGTVSISCQASQSVDSNNYCSWYQQKPGQPPKLLIHKASKLASGVPSRFKGSGSGTQFTLTINDLECDDAATYYCAGGLGDNIYAFGGGTEVEIN the listed EC50 is 0.0077
